- Tested target: Cytochrome P450 3A4 (Homo sapiens) (UniProt P08684)
- Sequence (P08684 whole entry, looked up): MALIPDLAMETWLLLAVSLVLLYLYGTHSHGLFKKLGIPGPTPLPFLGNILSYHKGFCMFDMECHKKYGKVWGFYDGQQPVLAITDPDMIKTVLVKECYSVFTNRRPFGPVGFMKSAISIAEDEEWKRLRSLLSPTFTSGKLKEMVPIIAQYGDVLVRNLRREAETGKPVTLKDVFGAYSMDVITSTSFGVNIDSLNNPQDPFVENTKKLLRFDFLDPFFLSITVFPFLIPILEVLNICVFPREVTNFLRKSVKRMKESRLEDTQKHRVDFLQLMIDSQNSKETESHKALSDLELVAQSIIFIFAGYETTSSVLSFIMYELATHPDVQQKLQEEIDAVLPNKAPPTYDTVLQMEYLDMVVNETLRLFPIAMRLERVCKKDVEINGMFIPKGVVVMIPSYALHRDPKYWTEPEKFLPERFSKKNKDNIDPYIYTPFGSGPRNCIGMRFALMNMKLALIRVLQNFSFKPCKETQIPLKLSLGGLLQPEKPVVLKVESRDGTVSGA
- Procedure summary: Cytochrome panel assay with activity outcomes
- Test parameters: recombinant CYP, pro-luciferin dealkylation, luminescence, p450-cyp3a4; series mostly up to 57.1 µM
Among all 16,000 compounds or so, about 5,100 (32%) were called active. Another 25% or so got no clear call; they are omitted. Calls come from the whole dose curve; as a rule, active = well fitted curve in the direction sought with a large enough effect; inconclusive = small, poorly fitted or top-dose-only effect, or effect the other way; inactive = no such curve, though single readings can be large or run the other way. The list shows a part of the results.
Please reply with one of these outcomes: yes (1) = active, no (0) = inactive

[[record]]
molecule = "Cc1cc(C(=O)N[C@@H](c2ccccc2)[C@]2(C)C[C@H]2[C@@H](C)C(=O)Nc2ccc3ccccc3c2)n(C)n1"
tested_target = "Cytochrome P450 3A4 (Homo sapiens) (UniProt P08684)"
discrete_label = "yes (1)"


As a next step, examine the molecule that follows.
# input Name the outcome recorded for `Cc1cc(C(=O)N[C@H](c2ccccc2)[C@@]2(C)C[C@@H]2[C@@H](C)C(=O)Nc2ccc3ccccc3c2)n(C)n1` in the assay.
# output yes (1)

====

- Tested target: Cytochrome P450 3A4 (Homo sapiens) (UniProt P08684)
- Procedure summary: Cytochrome panel assay with activity outcomes
- Test parameters: recombinant CYP, pro-luciferin dealkylation, luminescence, p450-cyp3a4; series mostly up to 57.1 µM
Among all 16,000 compounds or so, about 5,100 (32%) were called active. Another 25% or so got no clear call; they are omitted. Calls follow the shape of the dose curve; as a rule, active = well fitted curve in the direction sought with a large enough effect; inconclusive = small, poorly fitted or top-dose-only effect, or effect the other way; inactive = no such curve, though single readings can be large or run the other way. This is one part of the list.
Please reply with one of these outcomes: active, inactive

# input Name the outcome recorded for `CN(C)CCNC(=O)c1cc(Br)ccc1Cl` in the assay.
# output inactive

# input Name the outcome recorded for `COc1ccc2[nH]cc(CCNc3ncnc4ccc(-c5c(C)noc5C)cc34)c2c1` in the assay.
# output active

# input Name the outcome recorded for `Cc1nc2cnc(Oc3cccc(Cl)c3)nc2n(C2CC2)c1=O` in the assay.
# output inactive

# input Name the outcome recorded for COC1(OC)N=C(NC(=O)Nc2ccccc2)C2(C#N)C(c3ccccc3)C12C#N (configuration not stated) in the assay.
# output inactive

# input Name the outcome recorded for `O=C(c1ccc(N2CCCCC2)c([N+](=O)[O-])c1)N(Cc1ccccc1)c1ccccn1` in the assay.
# output active

# input Name the outcome recorded for `CCSc1nnc(NC(=O)C(C(F)(F)F)C(F)(F)F)s1` in the assay.
# output inactive

# input Name the outcome recorded for CC(=O)Nc1ccc(NC(=O)CC2Nc3cccc4cccc(c34)NC2=O)cc1 (configuration not stated) in the assay.
# output active

# input Name the outcome recorded for `NC(=O)NC(=O)Nc1ccccc1Cl` in the assay.
# output inactive

# input Name the outcome recorded for CCC(C)n1nnc2c(=O)oc3ccccc3c21 (configuration not stated) in the assay.
# output inactive

# input Name the outcome recorded for `CS(=O)(=O)c1ccc([C@H](O)[C@H](CO)NC(=O)C(Cl)Cl)cc1` in the assay.
# output inactive

# input Name the outcome recorded for `Cc1ccccc1-c1nccc(NCc2cccs2)n1` in the assay.
# output active

# input Name the outcome recorded for `O=C(NNc1cccc(Cl)n1)Nc1ccccc1Cl` in the assay.
# output active

====

- Tested target: Cytochrome P450 3A4 (Homo sapiens)
- Procedure summary: Cytochrome panel assay with activity outcomes
- Test parameters: recombinant CYP, pro-luciferin dealkylation, luminescence, p450-cyp3a4; series mostly up to 57.1 µM
Among all 16,000 compounds or so, about 5,100 (32%) were called active. About 25% were inconclusive and are not listed. Calls follow the shape of the dose curve; as a rule, active = well fitted curve in the direction sought with a large enough effect; inconclusive = small, poorly fitted or top-dose-only effect, or effect the other way; inactive = no such curve, though single readings can be large or run the other way. The list shows a part of the results.
Please reply with one of these outcomes: active, inactive

[[record]]
compound = "COC(=O)N1CCC2(CC1)CCN(c1ccncc1)CC2"
discrete_label = "inactive"


# input Name the outcome recorded for `c1ccc(CNc2ccnc(-c3ccoc3)n2)cc1` in the assay.
# output active
